Ref: PubChem BioAssay AID1318

MEASUREMENT NOTES: STAT1 reporter activators, IFN-gamma induced, counter-screen for STAT3 activator project, cell-based, NIH 3T3, luciferase luminescence (AID 1318);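 further: 100% = IFN-gamma with DMSO median signal so 100% means no change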
APPLIED CONDITIONS: NIH 3T3 STAT1-luciferase reporter, at 5.7 µM, active compounds read high
In all, about 1,200 compounds went through this assay and about 160 (13%) were called active. A selection follows.
Quick list: activation (% of control) per entry.
Respond numerically; units are % and should not be typed.

As a guide, the following entries are already answered.
| MOLECULAR STRING | VALUE REPORTED |
| --- | --- |
| c1ccc(-c2cn3c(n2)CCc2ccc4cccnc4c2-3)cc1 | 94.3 |
| Cc1nc2ccccc2cc1O | 87.9 |
| Cc1ccc(S(=O)(=O)Nc2nc3ccccc3nc2N2CCc3ccccc3C2)cc1 | 105 |
| CCOC(=O)CN(C)Cc1c[nH]c2ccccc12 | 88.5 |
| COc1ccc(-c2c3c(=O)n(C)c(=O)n(C)c3cn2-c2cccc(OC)c2)cc1 | 101 |
| C=CCn1c(-c2ccccc2OCC)n[nH]c1=S | 112 |
| CC(=O)Nc1ccc(NC(=O)COc2ccccc2C(=O)Nc2cccc(Cl)c2Cl)cc1 | 100 |

Prompt: I am curious: what activation (% of control) value has been reported for `COC(=O)c1[nH]c2cccc(C)c2c1NC(=O)CN1CCCc2ccccc21` ?
Completion: 93.5
